- Test system: HeLa MZ
- MEASUREMENT_NOTES: LBPA endosome anti-LBPA integrated intensity (sum per cell), Z-score; higher = more LBPA staining
- APPLIED_CONDITIONS: compound concentration in added solution (µM; 5 µl added to 20 µl cells): 10; 18 h
Counter-ions that a name gives are not always drawn.
Tag: 1 if measured LBPA endosome anti-LBPA integrated intensity (z-score) is not below 0.2, -1 if it is.

Worked examples, 5 compounds total:
COMPOUND: CC(C)(N)Cc1ccccc1 [Phentermine hydrochloride]
TESTED_ON: HeLa MZ
CLASS_LABEL: 1
--
COMPOUND: CNC(C)(C)Cc1ccccc1 [Mephentermine hemisulfate]
TESTED_ON: HeLa MZ
CLASS_LABEL: -1
--
COMPOUND: O=c1[nH]c2ccccc2n1C1CCN(CCCC(c2ccc(F)cc2)c2ccc(F)cc2)CC1 [Pimozide]
TESTED_ON: HeLa MZ
CLASS_LABEL: 1
--
COMPOUND: CC[N+]1(C)CCCC(OC(=O)C(O)(c2ccccc2)c2ccccc2)C1 (stereo unspecified) [Pipenzolate bromide]
TESTED_ON: HeLa MZ
CLASS_LABEL: 1
--
COMPOUND: COc1cccc(C2(O)CCCCC2CN(C)C)c1 (stereo unspecified) [Tramadol hydrochloride]
TESTED_ON: HeLa MZ
CLASS_LABEL: 1

Query :: Hello, I need to know if C#C[C@]1(O)CC[C@H]2[C@@H]3CCC4=CC(=O)CCC4=C3C=C[C@@]21CC [Gestrinone] has measured LBPA endosome anti-LBPA integrated intensity (z-score) not below 0.2. Thanks!
Result :: -1

Query :: Hello, I need to know if C[C@]12CC[C@H](O)C[C@@H]1CC[C@@H]1[C@@H]2CC[C@]2(C)C(=O)CC[C@@H]12 [Epiandrosterone] has measured LBPA endosome anti-LBPA integrated intensity (z-score) not below 0.2. Thanks!
Result :: 1

Query :: Hello, I need to know if CC(=O)OCC1=C(C(=O)O)N2C(=O)[C@@H](N)[C@H]2SC1 [Cephalosporanic acid, 7-amino] has measured LBPA endosome anti-LBPA integrated intensity (z-score) not below 0.2. Thanks!
Result :: -1

Query :: Hello, I need to know if CC(C)N(CCC(C(N)=O)(c1ccccc1)c1ccccn1)C(C)C (stereo unspecified) [Disopyramide] has measured LBPA endosome anti-LBPA integrated intensity (z-score) not below 0.2. Thanks!
Result :: -1

Query :: Hello, I need to know if NCC(O)c1ccc(O)cc1 (racemic) [(+,-)-Octopamine hydrochloride] has measured LBPA endosome anti-LBPA integrated intensity (z-score) not below 0.2. Thanks!
Result :: -1

Query :: Hello, I need to know if O=C(CCCN1CCC2(CC1)C(=O)NCN2c1ccccc1)c1ccc(F)cc1 [Spiperone] has measured LBPA endosome anti-LBPA integrated intensity (z-score) not below 0.2. Thanks!
Result :: 1

Query :: Hello, I need to know if C=C1[C@@H]2CC[C@H]3[C@]4(C)C[C@H](O[C@@H]5O[C@H](CO)[C@@H](OS(=O)(=O)O)[C@H](OS(=O)(=O)O)[C@H]5OC(=O)CC(C)C)C[C@@H](C(=O)O)[C@H]4CC[C@]3(C2)[C@@H]1O [Atractyloside potassium salt] has measured LBPA endosome anti-LBPA integrated intensity (z-score) not below 0.2. Thanks!
Result :: -1

Query :: Hello, I need to know if Oc1cc(Cl)ccc1Oc1ccc(Cl)cc1Cl [Triclosan] has measured LBPA endosome anti-LBPA integrated intensity (z-score) not below 0.2. Thanks!
Result :: -1

Query :: Hello, I need to know if NCC(CC(=O)O)c1ccc(Cl)cc1 (racemic) [Baclofen (R,S)] has measured LBPA endosome anti-LBPA integrated intensity (z-score) not below 0.2. Thanks!
Result :: -1

Query :: Hello, I need to know if O=P1(NCCCl)OCCCN1CCCl (stereo unspecified) [Ifosfamide] has measured LBPA endosome anti-LBPA integrated intensity (z-score) not below 0.2. Thanks!
Result :: -1

Query :: Hello, I need to know if CCC(=O)O[C@H]1CC[C@H]2[C@@H]3CCC4=CC(=O)CC[C@]4(C)[C@H]3CC[C@]12C [Testosterone propionate] has measured LBPA endosome anti-LBPA integrated intensity (z-score) not below 0.2. Thanks!
Result :: -1
